This listing pairs compounds with measured pIC50.
- assay method text: Inhibitory activity of compound on p24 production in peripheral blood mononuclear cells infected with HIV strain HTLV IIIB wild type.
- Format: functional
- condition notes: Homo sapiens
Lab note: report pIC50 as minus log10 of the concentration in molar units, number only.

Documented pIC50 of `S=C(NCCc1ccccn1)Nc1ccc(Br)cn1` : 8.15

Documented pIC50 of `CC(C)Nc1cccnc1N1CCN(C(=O)c2cc3cc(NS(C)(=O)=O)ccc3[nH]2)CC1` : 8.05

Documented pIC50 of `Cc1cn([C@H]2C[C@H](N=[N+]=[N-])[C@@H](CO)O2)c(=O)[nH]c1=O` : 8.40

Documented pIC50 of `S=C(NCCC1=CCCCC1)Nc1ccc(Cl)cn1` : 8.52
